test: T. gondii ME49Luc in HeLa cells, luciferase assay, 72 h, no IFN-y (AID 1259421); details: concentration not given here
About 610 (9.5%) of roughly 6,400 compounds were called active. Rule as the data show it: active = activity change below about -70%; inconclusive = no clear call, values can overlap the other calls; inactive = above that. Many of the other results were omitted from the sample, so actives are more common in it than they were.
Form entry, call: pick from true (1) for active, false (0) for inactive

Completed entries (count: 5):
| compound | class-assignment |
| --- | --- |
| CC(C)=CCC[C@](C)(O)[C@H]1CC[C@]2(C)[C@@H]1[C@H](O)C[C@@H]1[C@@]3(C)CC[C@H](O)C(C)(C)[C@@H]3CC[C@]12C | false (0) |
| COc1cc2nccc(Oc3ccc(NC(=O)Nc4ccc(F)cc4F)c(F)c3)c2cc1OC | false (0) |
| CC(C)ON([C@@H](C(=O)NO)C(C)C)S(=O)(=O)c1ccc(-c2ccccc2)cc1 | true (1) |
| COc1cc2c(N3CCN(C(=O)Nc4ccc(OC(C)C)cc4)CC3)ncnc2cc1OCCCN1CCCCC1 | false (0) |
| CC(C)C1CCC(C(=O)N[C@H](Cc2ccccc2)C(=O)O)CC1 (some centres not stated) | false (0) |

Incoming: Identify the outcome logged in this assay for the compound shown: CCOc1ccc(Nc2nc(-c3c(C)nc4ccccn34)cs2)cc1
Outgoing: true (1)

Incoming: Identify the outcome logged in this assay for the compound shown: CC(=O)O[C@@H]1CC2C(C)(C)[C@H](O)CC[C@]2(C)C2CC[C@@]3(C)[C@H](c4ccoc4)OC(=O)C4OC43[C@@]21C (some centres not stated)
Outgoing: false (0)

Origin of the recorded values: PubChem BioAssay AID1259421
